src = patent US20240254114A1

Target: human DGAT2 (Homo sapiens (Human))
Sequence (Q96PD7 whole entry): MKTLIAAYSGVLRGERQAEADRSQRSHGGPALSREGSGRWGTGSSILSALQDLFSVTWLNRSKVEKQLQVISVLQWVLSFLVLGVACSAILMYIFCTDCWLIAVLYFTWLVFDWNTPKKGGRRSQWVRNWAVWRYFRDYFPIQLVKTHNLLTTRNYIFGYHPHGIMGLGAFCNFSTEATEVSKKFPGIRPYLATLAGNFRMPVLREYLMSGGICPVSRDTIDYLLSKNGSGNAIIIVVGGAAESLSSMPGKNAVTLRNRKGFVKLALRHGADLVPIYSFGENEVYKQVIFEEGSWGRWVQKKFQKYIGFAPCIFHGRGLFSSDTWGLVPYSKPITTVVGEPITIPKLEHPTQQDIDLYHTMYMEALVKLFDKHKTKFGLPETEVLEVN
Assay: DGAT2 Enzymatic Activity Assay
Conditions: read-out: Human DGAT2 IC50; hDGAT2 membrane prep from Sf-9 cells; 13C18-triolein product by LC/MS/MS
What IC50 was measured for each of the following?
Give the quantity in nM, number only.

**Query** Entry Cn1c(C(=O)NC2(C)CS(=O)(=O)C2)nc2ccc(Oc3ncc(F)cc3OCC(F)F)nc21 needs its IC50 filled in; supply it.
**Result** 42

**Query** Entry Cc1cc2nc(C(=O)NC3(C)CCS(=O)(=O)CC3)n(C)c2nc1Oc1ncc(F)cc1OCC(F)(F)F needs its IC50 filled in; supply it.
**Result** 6.3

**Query** Entry Cn1c(C(=O)N[C@H]2CCCC(F)(F)[C@@H]2O)nc2cnc(Oc3ncc(Cl)cc3OCC(F)F)cc21 needs its IC50 filled in; supply it.
**Result** 10

**Query** Entry Cn1c(C(=O)NC2(C)CCS(=O)(=O)CC2)nc2cnc(OCc3ncc(F)cc3OCC(F)(F)F)cc21 needs its IC50 filled in; supply it.
**Result** 262

**Query** Entry Cn1c(C(=O)NC2(C)CCS(=O)(=O)CC2)nc2cnc(Oc3ncc(F)cc3OCC(F)(F)F)c(F)c21 needs its IC50 filled in; supply it.
**Result** 48
